Target: mSSTR5 (Mus musculus)
Sequence (O08858 1-362): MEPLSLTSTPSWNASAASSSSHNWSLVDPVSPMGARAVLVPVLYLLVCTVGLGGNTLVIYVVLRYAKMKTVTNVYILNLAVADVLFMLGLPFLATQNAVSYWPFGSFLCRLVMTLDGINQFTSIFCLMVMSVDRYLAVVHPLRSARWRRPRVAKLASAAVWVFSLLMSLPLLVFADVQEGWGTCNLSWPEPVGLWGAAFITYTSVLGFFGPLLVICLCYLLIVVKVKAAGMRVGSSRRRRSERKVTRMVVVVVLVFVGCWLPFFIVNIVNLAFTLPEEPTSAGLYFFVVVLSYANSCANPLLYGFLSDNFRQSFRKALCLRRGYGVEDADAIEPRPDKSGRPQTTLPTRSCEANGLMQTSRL
Test: SSTR5 antagonistic activity in vitro by calcium flow detection (mSSTR5-CHO-Gα16 cells)
Settings: 100 nM Somatostatin-14 agonist, Fluo-4 fluorescence 525 nm
# IC50 per record follows

Solved entries:
INSERT INTO measurements (molecule, readout_label, assay_value) VALUES
  ('CCOc1cc(CN2CCC3(CC2)CN(c2ccc(C(=O)O)cc2F)C3)cc(OCC)c1-c1ccc(F)cc1', 'IC50', '0.1 to 50 nM'),
  ('CCOc1cc(CN2CCC3C(CCN3c3ccc(C(=O)O)cc3)C2)cc(OCC)c1-c1ccc(F)cc1 (stereo not shown)', 'IC50', '50 to 200 nM'),
  ('CCOc1cc(CN2CCC(C3CN(S(=O)(=O)c4ccc(OC(F)(F)F)cc4)C3)CC2)cc(OCC)c1-c1ccc(F)cc1', 'IC50', '0.1 to 50 nM');

Alright, here's another molecule for you.
// Input: CCOc1cc(CN2CCC3(CC2)CN(c2ccc(C(=O)O)cc2)C3)cc(OCC)c1-c1ccc(F)cc1 . Output its IC50 only.
0.1 to 50 nM
